Test system: PC-3 prostate
Experiment: NCI tumour cell line growth inhibition, 48 h
attribute-measured: TGI

## Input Could you share which TGI value was measured for [N-]=[N+]=NC1=C(N=[N+]=[N-])c2cccc3cccc(c23)C1=O ?
## Output > 100 µM

## Input Could you share which TGI value was measured for c1cc(-c2ccc(Oc3ccc(-c4ccncc4)cc3)cc2)ccn1 ?
## Output > 100 µM

## Input Could you share which TGI value was measured for COc1cccc(C2C3=C(COC3=O)N(CCO)c3cc4c(cc32)CCC4)c1 (stereo not drawn) ?
## Output > 50 µM

## Input Could you share which TGI value was measured for Cn1cc(-c2nonc2-c2cn(C)c3ccc(Br)cc23)c2ccccc21 ?
## Output > 100 µM

## Input Could you share which TGI value was measured for N#CCCN(CCC#N)c1ccc(/C=C2\N=C(c3ccccc3)N(NC(=O)c3ccncc3)C2=O)cc1 ?
## Output > 100 µM

## Input Could you share which TGI value was measured for O=C1Nc2ccccc2/C1=C\c1c(Cl)[nH]c2ccccc12 ?
## Output 3.46 µM

## Input Could you share which TGI value was measured for CCOP(=O)(OCC)OC1CC(n2cnc3c(N(CC)CC)ncnc32)OC1CO[Si](C)(C)C(C)(C)C (stereo not drawn) ?
## Output 28.5 µM

## Input Could you share which TGI value was measured for COc1ccc(C(NCCNC(c2ccc(OC)c(OC)c2)c2cc3c(cc2O)OCO3)c2cc3c(cc2O)OCO3)cc1OC (stereo not drawn) ?
## Output 6.64 µM

## Input Could you share which TGI value was measured for CSC(=S)Nc1cc(C)ccn1 ?
## Output > 100 µM

## Input Could you share which TGI value was measured for CCOC(=O)c1c(C)n(-c2ccc(C)cc2)c2c1cc(O)c1[nH]c3c(c12)CCCC3 ?
## Output 52.3 µM

## Input Could you share which TGI value was measured for O=C(N/N=C1\CCc2ccccc21)N/N=C1\CCc2ccccc21 ?
## Output > 100 µM

## Input Could you share which TGI value was measured for O=C(/C=C/c1cccnc1)/C=C/c1cccnc1 ?
## Output 3.01 µM

## Input Could you share which TGI value was measured for ClCc1nc2cc(Cl)ccc2o1 ?
## Output 19.6 µM

## Input Could you share which TGI value was measured for Cc1cc2c(cc1-c1cc3c(cc1C)C(C(C)C)=C(O)C(=O)/C3=C\Nc1cccc3c(N)cccc13)/C(=C/Nc1cccc3c(N)cccc13)C(=O)C(O)=C2C(C)C ?
## Output > 100 µM

## Input Could you share which TGI value was measured for COC(=O)C1CCCCCCCCCCC12SCCCS2 (stereo not drawn) ?
## Output 50 µM

## Input Could you share which TGI value was measured for CC1=NN(c2ccccc2Cl)C2(C1)SCC(=O)N2c1nc2ccccc2s1 (stereo not drawn) ?
## Output > 100 µM

## Input Could you share which TGI value was measured for CCN1C(=O)N(CC)C2C1NN=c1s/c(=C\c3ccc([N+](=O)[O-])cc3)c(=O)n12 (stereo not drawn) ?
## Output > 75.9 µM

## Input Could you share which TGI value was measured for Cc1[nH]c2ncn(N)c(=N)c2c1Cc1ccccc1 ?
## Output > 100 µM

## Input Could you share which TGI value was measured for CC(=O)Nc1ccc2c(c1)C(=Nc1ccc(C(=O)O)cc1)c1ccccc1-2 ?
## Output > 100 µM

## Input Could you share which TGI value was measured for COc1ccc(N=C/C=C/C(=C/COC(C)=O)OC(C)=O)cc1 ?
## Output > 100 µM

## Input Could you share which TGI value was measured for CCOC(=O)c1cc(NC(=O)c2ccccc2)c(=O)n2c(cc3c(Cl)cccc32)c1O ?
## Output > 100 µM

## Input Could you share which TGI value was measured for Cc1c(/C=N\NC(=S)N(C)CCN(C)C(=S)N/N=C\c2c(C)n(C)n(-c3ccccc3)c2=O)c(=O)n(-c2ccccc2)n1C ?
## Output > 100 µM

## Input Could you share which TGI value was measured for O=C1c2ccccc2-c2ccc(N(Cc3ccc(Br)cc3)Cc3ccc(Br)cc3)cc21 ?
## Output > 100 µM

## Input Could you share which TGI value was measured for O=C(Nc1ccc(Cl)cc1)C(=O)C1=C(O)c2ccccc2OC1 ?
## Output > 100 µM

## Input Could you share which TGI value was measured for COc1ccc(-c2c(C(=O)Nc3ccccc3)c(-c3ccccc3)n(C3OC(CO)C(O)C(O)C3O)c(=S)c2C#N)cc1 (stereo not drawn) ?
## Output > 100 µM

## Input Could you share which TGI value was measured for Cn1cccc1C1CC(=O)N(CCC[Se]C#N)C1=O (stereo not drawn) ?
## Output 5.63 µM

## Input Could you share which TGI value was measured for CC(=O)NNc1nc(C)c(C(/C=C/c2ccc3c(c2)OCO3)=N/NC(=O)c2ccncc2)s1 ?
## Output > 100 µM

## Input Could you share which TGI value was measured for CN(Cc1cnc2nc(N)nc(N)c2n1)c1ccc(C(=O)NC2CCCCC2)cc1 ?
## Output 46 µM

## Input Could you share which TGI value was measured for CCCN=C1S/C(=C/c2ccc(OC)c(OC)c2)C(=O)N1c1ccccc1 ?
## Output > 100 µM

## Input Could you share which TGI value was measured for C#CCSc1nnnn1-c1ccc(Br)c(C)c1 ?
## Output > 100 µM

## Input Could you share which TGI value was measured for O=Cc1cc(O)ccc1Br ?
## Output > 78.4 µM

## Input Could you share which TGI value was measured for C1=C(N2CCOCC2)/C(=C2\SC(=Nc3ccccc3)C(=Nc3ccccc3)N2c2ccccc2)CC1 ?
## Output > 100 µM

## Input Could you share which TGI value was measured for O=C(CCl)Nc1ccc(-c2nc3ccccc3s2)cc1 ?
## Output 6.71 µM

###

System: NCI-H522 lung
Test: NCI tumour cell line growth inhibition, 48 h
So I've got a bunch of molecules here, and I need their TGI values.

## Input Could you share which TGI value was measured for COc1ccc(-n2c(-c3ccccc3)cc(-c3cccs3)c2-c2cccs2)cc1 ?
## Output > 100 µM

## Input Could you share which TGI value was measured for COC(=O)C(NC(=O)C12CCC(C)(C(=O)O1)C2(C)C)c1cc(C(C)(C)C)c(O)c(C(C)(C)C)c1 (stereo not drawn) ?
## Output > 100 µM

## Input Could you share which TGI value was measured for Nc1ccc(C(=O)O)c2[nH]c3ccccc3c(=O)c12 ?
## Output > 100 µM

###

So I've got a bunch of compounds here, and I need their TGI values.
System: SNB-19 CNS
Assay: NCI tumour cell line growth inhibition, 48 h

## Input Could you share which TGI value was measured for COc1ccc(C(=O)Nc2ccccc2C#N)cc1 ?
## Output > 100 µM

## Input Could you share which TGI value was measured for Cc1cc2c(C)nn(Cc3ccc(Cl)cc3Cl)c2c(C#N)c1C ?
## Output > 100 µM

## Input Could you share which TGI value was measured for O=C(NCCS(=O)(=O)N1C(=O)C2CCCN2C(=O)[C@@H]1Cc1ccccc1)OCc1ccccc1 (some centres undefined) ?
## Output > 100 µM

## Input Could you share which TGI value was measured for COC(=O)C(NC(=O)C12CCC(C)(C(=O)O1)C2(C)C)c1cc(C(C)(C)C)c(O)c(C(C)(C)C)c1 (centres undefined) ?
## Output > 100 µM

## Input Could you share which TGI value was measured for O=C1c2cccnc2-c2nc(-c3ccccc3)cc3c2c1nc1ccccc13 ?
## Output 20.1 µM

## Input Could you share which TGI value was measured for c1cc(-c2ccc(Oc3ccc(-c4ccncc4)cc3)cc2)ccn1 ?
## Output > 100 µM

## Input Could you share which TGI value was measured for COC(=O)C1(Cc2ccccc2C)Cc2ccc(C)cc2C1=O (centres undefined) ?
## Output > 100 µM

## Input Could you share which TGI value was measured for S=c1nc(/C=C/c2ccc(Cl)c(Cl)c2)[nH][nH]1 ?
## Output > 100 µM

## Input Could you share which TGI value was measured for COc1ccc(Nc2nc3c(N)cc(C(F)(F)F)cc3nc2-c2ccccc2)cc1 ?
## Output > 100 µM

## Input Could you share which TGI value was measured for Cc1ccc2c(c1)/C(=N\N=C/c1cn(C(C)C)c3ccccc13)C(=O)N2 ?
## Output > 100 µM

## Input Could you share which TGI value was measured for O=S(=O)(Nc1ccc2ccc3cccc4ccc1c2c34)c1ccccc1 ?
## Output > 100 µM

## Input Could you share which TGI value was measured for O=c1[nH]cnc2c1nnn2C1C=C(CO)C(O)C1O (centres undefined) ?
## Output > 100 µM

## Input Could you share which TGI value was measured for Cc1cc2c(cc1-c1cc3c(cc1C)C(C(C)C)=C(O)C(=O)/C3=C\Nc1cccc3c(N)cccc13)/C(=C/Nc1cccc3c(N)cccc13)C(=O)C(O)=C2C(C)C ?
## Output > 100 µM

## Input Could you share which TGI value was measured for Cc1oc2nc(N(C)C)n3c(C)nnc3c2c1C ?
## Output > 100 µM
